# Tested on: RXF 393
# RUN DESCRIPTION: NCI tumour cell line growth inhibition, 48 h
The source made the active and inactive calls. Cut-off read from the data, not from the text of the source: active = GI50 up to about 1.1 µM and inactive = higher.
Outcomes: class 1 (active), class 0 (inactive)

[
  {
    "COMPOUND": "CC1=NNC(=O)[C@H]2[C@H]1CCC1[C@@H]2CC[C@]2(C)[C@@H](O)CC[C@@H]12 (some centres undefined)",
    "GROUP LABEL": "class 0"
  },
  {
    "COMPOUND": "CCCCCCCCCCCC(=O)CC(=O)c1c(O)cccc1O",
    "GROUP LABEL": "class 0"
  },
  {
    "COMPOUND": "CC(C)NC(C)C(C)c1ccccc1 (centres undefined)",
    "GROUP LABEL": "class 0"
  },
  {
    "COMPOUND": "COC(=O)CN1CCS/C1=N/C#N",
    "GROUP LABEL": "class 0"
  },
  {
    "COMPOUND": "CC(N)Cc1cccc(C(F)(F)F)c1 (centres undefined)",
    "GROUP LABEL": "class 0"
  },
  {
    "COMPOUND": "Nc1ccn(CCO)c(=O)n1",
    "GROUP LABEL": "class 0"
  },
  {
    "COMPOUND": "O=C(O)Cc1c(O)ccc2ccccc12",
    "GROUP LABEL": "class 0"
  },
  {
    "COMPOUND": "COC(=O)c1c(O)ccc2c1c1c(n2Cc2ccccc2)C(=O)c2ccccc2C1=O",
    "GROUP LABEL": "class 0"
  },
  {
    "COMPOUND": "O=C1CCC2=C(CCC2)N1CCc1ccc2c(c1)OCO2",
    "GROUP LABEL": "class 0"
  },
  {
    "COMPOUND": "COC(=O)C1=C(OC)C(=P2(c3ccccc3)CC(c3ccccc3)=C2c2ccccc2)C(C(=O)OC)=C1C(=O)OC (centres undefined)",
    "GROUP LABEL": "class 0"
  },
  {
    "COMPOUND": "O=C(O)c1ccccc1CN1CCCC(C(=O)O)C1 (centres undefined)",
    "GROUP LABEL": "class 0"
  },
  {
    "COMPOUND": "O=C1NC2=C(CCCCC/C2=N\\O)C12CCCCCC2",
    "GROUP LABEL": "class 0"
  },
  {
    "COMPOUND": "C/C(=N\\NC(=S)N1CCCCC1)c1cccc(C)n1",
    "GROUP LABEL": "class 1"
  },
  {
    "COMPOUND": "C=C1C[C@@H]2O[C@H]3[C@H]4[C@@H](C[C@@H](C)[C@@H](OC(C)=O)[C@H]42)[C@@H](C)CO[C@@]3(C)[C@H](OC(C)=O)C[C@H]1O",
    "GROUP LABEL": "class 0"
  },
  {
    "COMPOUND": "CC[C@@]1(O)C(=O)OCc2c1cc1n(c2=O)Cc2c-1nc1ccccc1c2/C=N\\NC(=O)C1CCCN1 (some centres undefined)",
    "GROUP LABEL": "class 1"
  },
  {
    "COMPOUND": "Cc1ccc(C(=O)N/N=C(\\N=N\\c2ccc(C(=O)O)cc2)c2ccc(N(CCC#N)CCC#N)cc2C)cc1",
    "GROUP LABEL": "class 0"
  },
  {
    "COMPOUND": "COC(=O)c1cc2ccccc2c2nc3ccccc3c(Cl)c12",
    "GROUP LABEL": "class 0"
  },
  {
    "COMPOUND": "Cc1c(-c2ccccc2)oc(=O)c2ccccc12",
    "GROUP LABEL": "class 0"
  },
  {
    "COMPOUND": "NCC(=O)Nc1ccccc1",
    "GROUP LABEL": "class 0"
  },
  {
    "COMPOUND": "Cc1nc2c(-c3ccccc3)[nH]c(C)c2c(=O)o1",
    "GROUP LABEL": "class 0"
  },
  {
    "COMPOUND": "[O-]c1c2c(nn1-c1ccccc1)c1ccccc1c[n+]2Cc1ccccc1",
    "GROUP LABEL": "class 1"
  },
  {
    "COMPOUND": "CCOC(=O)c1c(C)cc(=O)n2c1[nH]c1ccccc12",
    "GROUP LABEL": "class 0"
  },
  {
    "COMPOUND": "O=c1[nH]c(=O)n(C2CC(O)C(CO)O2)cc1C1=NC1 (centres undefined)",
    "GROUP LABEL": "class 0"
  },
  {
    "COMPOUND": "Cc1nc2cc(N)c(F)cc2[nH]1",
    "GROUP LABEL": "class 0"
  },
  {
    "COMPOUND": "O=C(O)CCc1c2ccc(=O)c(O)c-2oc2c(O)c(O)ccc12",
    "GROUP LABEL": "class 0"
  },
  {
    "COMPOUND": "CC1CCC2(NC1)OC1CC3C4CC=C5CC(OC6OC(CO)C(OC7OC(C)C(O)C(O)C7O)C(O)C6OC6OC(C)C(O)C(O)C6O)CCC5(C)C4CCC3(C)C1C2C (centres undefined)",
    "GROUP LABEL": "class 0"
  },
  {
    "COMPOUND": "Nc1ncnc2c1cnn2Cc1ccc(Cl)cc1",
    "GROUP LABEL": "class 0"
  },
  {
    "COMPOUND": "COc1cc(C(=O)Oc2c(C(C)=O)sc3c2c(=O)n(-c2ccccc2)c(=S)n3-c2ccccc2)cc(OC)c1OC",
    "GROUP LABEL": "class 0"
  },
  {
    "COMPOUND": "O=C(O)c1c(-c2ccccc2)c(=O)[nH]c2ccccc12",
    "GROUP LABEL": "class 0"
  },
  {
    "COMPOUND": "C1COCCN1.CN(C)c1ccc(-c2c(C#N)c(N)nc(S)c2C#N)cc1",
    "GROUP LABEL": "class 0"
  },
  {
    "COMPOUND": "C=C(C)C(O)CCC1(C)C=Cc2c(c(C)cc3c2[nH]c2ccccc23)O1 (centres undefined)",
    "GROUP LABEL": "class 1"
  },
  {
    "COMPOUND": "COc1cc2ncnc(Nc3cccc(Cl)c3)c2cc1OC [TYRPHOSTIN AG-1478]",
    "GROUP LABEL": "class 0"
  },
  {
    "COMPOUND": "CC(=O)O[C@H]1C(=O)[C@@]2(C)[C@H]([C@H](OC(=O)c3ccoc3)[C@]3(O)C[C@H](OC(=O)[C@H](O)[C@@H](NC(=O)c4ccccc4)c4ccccc4)C(C)=C1C3(C)C)[C@]1(OC(C)=O)CO[C@@H]1C[C@@H]2O",
    "GROUP LABEL": "class 1"
  },
  {
    "COMPOUND": "Cc1ccc2c(c1)c(=O)c1c(NCCN(C)C)ccc3nnn2c31",
    "GROUP LABEL": "class 0"
  },
  {
    "COMPOUND": "CCOC(=O)CCC(NC(=O)OCc1ccccc1)C(=O)NC(CCC(=O)OCC)C(=O)NC(CCC(=O)OCC)C(=O)NNC(=O)OC(C)(C)C (centres undefined)",
    "GROUP LABEL": "class 0"
  },
  {
    "COMPOUND": "CC(=O)O[C@H]1C(=O)[C@@]2(C)C(C(OC(=O)c3ccccc3)[C@]3(O)CC(OC(=O)C(O)C(NC(=O)c4ccccc4)c4ccc(F)cc4)C(C)=C1C3(C)C)[C@]1(OC(C)=O)CO[C@@H]1C[C@@H]2O (some centres undefined)",
    "GROUP LABEL": "class 1"
  },
  {
    "COMPOUND": "CC1=NN(c2nc(N)nc(/C(C#N)=C\\c3csc([N+](=O)[O-])c3)n2)C(C)(C)C1",
    "GROUP LABEL": "class 0"
  },
  {
    "COMPOUND": "O=c1oc2ccccc2n1CCCn1c(=O)oc2ccccc21",
    "GROUP LABEL": "class 0"
  },
  {
    "COMPOUND": "CC(C)(C)C1CCC2c3c([nH]c4ccccc34)C3C(=O)N(c4ccc5c(c4)C(=O)c4ccccc4C5=O)C(=O)C3C2C1 (centres undefined)",
    "GROUP LABEL": "class 0"
  }
]

---

# Test system: HOP-62
# RUN DESCRIPTION: NCI tumour cell line growth inhibition, 48 h
Activity calls are given as the source filed them. Cut-off read from the data, not from the text of the source: active = GI50 up to about 1.1 µM and inactive = higher.
Measured GI50, listed per entry.

[
  {
    "COMPOUND": "COc1ccc(SC(C)(SC)c2ccccn2)c(OC)n1 (stereo unspecified)",
    "TARGET OR SYSTEM": "HOP-62",
    "GI50": "> 100 µM (inactive)"
  },
  {
    "COMPOUND": "OC1c2[nH]c3ccccc3c2CCN2CCCCC12 (stereo unspecified)",
    "TARGET OR SYSTEM": "HOP-62",
    "GI50": "> 100 µM (inactive)"
  },
  {
    "COMPOUND": "CCCCCCCCCCCCCCCCCCOP(=O)([O-])OCC[N+](C)(C)C",
    "TARGET OR SYSTEM": "HOP-62",
    "GI50": "0.301 µM (active)"
  },
  {
    "COMPOUND": "C=CCN1C(=O)C(=O)N(CC=C)C(=O)C1=O",
    "TARGET OR SYSTEM": "HOP-62",
    "GI50": "> 100 µM (inactive)"
  },
  {
    "COMPOUND": "O=C1C(c2ccccc2)=[N+]([O-])c2ccccc21",
    "TARGET OR SYSTEM": "HOP-62",
    "GI50": "18.7 µM (inactive)"
  },
  {
    "COMPOUND": "CSc1cnn(CCC#N)c(=O)n1",
    "TARGET OR SYSTEM": "HOP-62",
    "GI50": "> 100 µM (inactive)"
  },
  {
    "COMPOUND": "COc1ccc(C[C@@H]2NC[C@@H](O)[C@@H]2OC(C)=O)cc1",
    "TARGET OR SYSTEM": "HOP-62",
    "GI50": "0.0214 µM (active)"
  },
  {
    "COMPOUND": "CC(C)(C)C1=CC(=C2C(=O)C(=O)c3ccccc3C2=O)C=C(C(C)(C)C)C1=O",
    "TARGET OR SYSTEM": "HOP-62",
    "GI50": "> 100 µM (inactive)"
  },
  {
    "COMPOUND": "COC1=CC(=O)C2=C(C1=O)[C@H]1CC[C@]3(C)C(=O)CC[C@H]3[C@@H]1CC2",
    "TARGET OR SYSTEM": "HOP-62",
    "GI50": "59.8 µM (inactive)"
  },
  {
    "COMPOUND": "COC(=O)c1nn(-c2ccccc2)c(=O)cc1N=[N+]=[N-]",
    "TARGET OR SYSTEM": "HOP-62",
    "GI50": "> 100 µM (inactive)"
  },
  {
    "COMPOUND": "C[N+]1(CCN=C=NC2CCCCC2)CCOCC1",
    "TARGET OR SYSTEM": "HOP-62",
    "GI50": "> 100 µM (inactive)"
  },
  {
    "COMPOUND": "COC(=O)c1cc2ccccc2c2nc3ccccc3c(Cl)c12",
    "TARGET OR SYSTEM": "HOP-62",
    "GI50": "> 100 µM (inactive)"
  },
  {
    "COMPOUND": "CC1=NN(c2nc(N)nc(/C(C#N)=C\\c3csc([N+](=O)[O-])c3)n2)C(C)(C)C1",
    "TARGET OR SYSTEM": "HOP-62",
    "GI50": "26.6 µM (inactive)"
  },
  {
    "COMPOUND": "COC(=O)CCC(C)[C@H]1CCC2C3CC[C@@H]4CC5(CC[C@]4(C)C3C[C@H](OC(C)=O)[C@@]21C)OOC1(CCCCC1)OO5 (stereo partly specified)",
    "TARGET OR SYSTEM": "HOP-62",
    "GI50": "8.89 µM (inactive)"
  },
  {
    "COMPOUND": "C/C(=N\\NC(=S)N1CCCCC1)c1cccc(C)n1",
    "TARGET OR SYSTEM": "HOP-62",
    "GI50": "< 0.01 µM (active)"
  },
  {
    "COMPOUND": "NC1CCCCC1.O=C(O)C(CP(=O)(O)O)=C(Cl)Cl",
    "TARGET OR SYSTEM": "HOP-62",
    "GI50": "> 100 µM (inactive)"
  },
  {
    "COMPOUND": "COC(=O)C(=O)c1c2ccccc2n2ccc3c4ccccc4[nH]c3c12",
    "TARGET OR SYSTEM": "HOP-62",
    "GI50": "> 10 µM (inactive)"
  },
  {
    "COMPOUND": "Nc1nc(=S)n(-c2ccc(Cl)cc2)c2nc3ccccc3cc12",
    "TARGET OR SYSTEM": "HOP-62",
    "GI50": "55.8 µM (inactive)"
  },
  {
    "COMPOUND": "Cc1ccc(NC(=O)C(=O)C(C2C(C)CC(=O)C2CC(=O)O)[N+](=O)[O-])cc1 (stereo unspecified)",
    "TARGET OR SYSTEM": "HOP-62",
    "GI50": "> 100 µM (inactive)"
  },
  {
    "COMPOUND": "Cc1cc(OCC(=O)N/N=C/C(Br)=C/c2ccccc2)nc(SCC(=O)N/N=C/C(Br)=C/c2ccccc2)n1",
    "TARGET OR SYSTEM": "HOP-62",
    "GI50": "51.5 µM (inactive)"
  },
  {
    "COMPOUND": "O=C1C=C(O)C(=Cc2c(O)cc(O)cc2O)C(O)=C1",
    "TARGET OR SYSTEM": "HOP-62",
    "GI50": "> 100 µM (inactive)"
  }
]
